Entry source: PubChem BioAssay (NCATS)

System: ICS
Assay: qHTS profiling for inhibitors of Plasmodium falciparum proliferation (AID 504749); also: nearly all actives have a fitted effect of over 60% in size
Settings: P. falciparum in erythrocytes, SYBR Green DNA, 72 h; series mostly up to 12.8 µM
Results filed as inconclusive are left out. Active and inactive are the calls of the source. Calls follow the shape of the dose curve; as a rule, active = well fitted inhibition curve with a large enough effect; inconclusive = small, poorly fitted or top-dose-only effect; inactive = flat fitted curve, though single readings scatter.
Your response should consist of one outcome taken from T for active, F for inactive

CO[C@]1(NC(=O)CSCC#N)C(=O)N2C(C(=O)O)=C(CSc3nnnn3C)CS[C@H]21; F
COc1cc(/C=C/C(=O)/C=C(O)/C=C/c2ccc(O)c(OC)c2)ccc1O; T
C[C@H](NCCc1ccc(O)cc1)[C@@H](O)c1ccc(O)cc1; F
CC(=O)O[C@@H](C)C[N+](C)(C)C; F

### Prompt # fetch the recorded call for O=C(Cc1cccs1)NC1C(=O)N2C(C(=O)[O-])=C(C[n+]3ccccc3)CSC12 (stereo unspecified) here
### Response F

### Prompt Recorded test call requested for CC1(C)Oc2ccc(C#N)cc2[C@H](N2CCCC2=O)[C@H]1O
### Response F

----------
Biological target: Dual specificity protein kinase CLK4 (Homo sapiens) (UniProt Q9HAZ1)
Sequence (Q9HAZ1 whole entry, looked up): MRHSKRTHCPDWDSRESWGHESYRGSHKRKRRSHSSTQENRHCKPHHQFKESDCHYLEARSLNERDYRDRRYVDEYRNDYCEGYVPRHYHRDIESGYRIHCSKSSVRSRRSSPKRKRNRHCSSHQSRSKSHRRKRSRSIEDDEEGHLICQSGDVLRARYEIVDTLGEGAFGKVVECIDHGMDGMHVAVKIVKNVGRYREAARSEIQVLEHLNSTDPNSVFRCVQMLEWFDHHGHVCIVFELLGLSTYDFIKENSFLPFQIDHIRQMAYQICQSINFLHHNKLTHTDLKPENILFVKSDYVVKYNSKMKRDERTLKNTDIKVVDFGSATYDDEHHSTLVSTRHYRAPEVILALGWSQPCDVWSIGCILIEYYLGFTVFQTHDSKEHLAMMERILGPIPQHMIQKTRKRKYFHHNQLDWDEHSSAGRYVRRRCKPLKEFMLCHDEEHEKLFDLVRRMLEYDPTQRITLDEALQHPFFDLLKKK
Assay: qHTS Assay for Inhibitors of CDC-like Kinase 4 (ADP-FP Assay) (AID 1795);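 also: recombinant human CLK4 phosphorylating RS repeat peptide at 1 µM ATP; % is scaled to controls: 0 for no effect and ±100 for the full control effect; nearly all actives have a fitted effect of over 60% in size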
Conditions: Transcreener ADP fluorescence polarization; series mostly up to 50 µM
Experimental: NIH Molecular Libraries Probe Production Centers Network [MLPCN] NIH Chemical Genomics Center [NCGC] MLPCN Grant: 1R03MH084827-01 Assay Submitter (PI): Tom Misteli NCGC Assay Overview: Clk4 (Invitrogen cat # PV3839) was assayed using ATP and the RS repeat peptide (AnaSpec cat # 61722) as substrates using Transcreener (trade mark), a competitive fluorescence polarization (FP) assay. […] The amount of ADP produced can then be calculated using a calibration curve. […]
Inconclusive results are not listed. Active and inactive are the calls of the source. Calls follow the shape of the dose curve; as a rule, active = well fitted inhibition curve with a large enough effect; inconclusive = small, poorly fitted or top-dose-only effect; inactive = flat fitted curve, though single readings scatter.
Write down the outcome that applies. Available outcomes: active, inactive

O=c1c(-c2ccc(Cl)cc2)nc2cnc(Nc3ccccc3)nc2n1C1CC1; inactive
CCNc1ncc2nc(-c3cn(C)c4ccccc34)c(=O)n(C[C@H]3CCCO3)c2n1; inactive
COc1ccc(-c2nc3cnc(OC)nc3n(-c3ccc(OC)cc3)c2=O)cc1; inactive
COc1cccc(Cn2c(=O)c(-c3ccccc3)nc3cncnc32)c1; inactive
COCCn1c(=O)c(-c2cccc(Cl)c2)nc2cncnc21; inactive
COCCn1c(=O)c(CCc2ccccc2)nc2cnc(N3CCOCC3)nc21; inactive
COc1ccccc1-c1nccc(Nc2ccc(F)cc2)n1; inactive
N#CCCn1c(=O)cnc2cnc(Oc3cccc(Cl)c3)nc21; inactive

### Prompt For this molecule, state the assay outcome: CCNc1ncc2nc(-c3ccccc3)c(=O)n(C)c2n1
### Response inactive

### Prompt // param item: N#CCCn1c(=O)c(-c2ccccc2)nc2cnc(Nc3ccccc3)nc21 ; yields the recorded call
### Response inactive

### Prompt Hi, sorry to bother you, what did the test record for O=c1c(-c2ccc(F)cc2)nc2cnc(N3CCOCC3)nc2n1Cc1ccc(F)cc1 ?
### Response inactive

### Prompt Could you check what this test reported for COCCn1c(=O)c(-c2cccs2)nc2cnc(N3CCN(C)CC3)nc21 ?
### Response inactive

### Prompt Dear all, I need the recorded test outcome for COc1ncc2nc(-c3cn(C)c4ccccc34)c(=O)n(C[C@H]3CCCO3)c2n1 , thank you.
### Response inactive

----------
Test: qHTS Assay for Lipid Storage Modulators (AID 1519)
Details: Drosophila S3 cells, BODIPY lipid droplet/cell ratio, laser cytometry; measured here: cell count channel max response; cells loaded with oleic acid
Records with an inconclusive call do not appear.
Provide the reported max response of each item.
One number for each entry, in %.

For every item in the list below, what is its measured max response?
1. CS(=O)(=O)N1CCC2(CCCN(Cc3ccccc3)C2)CC1
2. CN1CCC2(CC1)CCN(S(=O)(=O)c1ccccc1)CC2
3. O=C(c1csnn1)N1CCC2(CCCN(c3ccncc3)C2)CC1

### Response
1: 10.5; 2: 8; 3: 0.465

Give max response for each of the items listed below.
1. Cc1cccc2c3c(ccc12)C1=C(C(=O)C3=O)C(C)CO1 (configuration not stated)
2. CN1CCN(c2ncncc2-c2ccoc2)CC1
3. C=C[C@](C)(O)CCC=C(C)C
4. Cn1cccc1C(=O)N1CCC2(CCCN(Cc3ccc(C#N)cc3)C2)CC1
5. Cc1cccc(CNc2ccnc(-c3ccccc3CN(C)C)n2)c1

### Response
1: 9.52; 2: 23.7; 3: 15.3; 4: 17.2; 5: -8.06

Hi team, please reply with max response for each item in this list.
1. COCCn1c(=O)c(-c2cccs2)nc2cnc(N3CCN(C)CC3)nc21
2. O=C(c1cccc(F)c1)N1CCC2(CCCN(Cc3ccccc3)C2)CC1
3. O=C(c1ccncc1)N1CCC2(CC1)CN(c1ccccn1)C2
4. CC(C)CN1CC2(CCN(C(=O)c3ccco3)CC2)C1

### Response
1. 18.6
2. 20.2
3. 0.68
4. 8.53

----------
Biological target: Cytochrome P450 3A4 (Homo sapiens)
Test: qHTS Assay for Inhibitors and Substrates of Cytochrome P450 3A4 (AID 884); also: nearly all actives have a fitted effect of over 50% in size
Settings: recombinant CYP3A4, Luciferin-PPXE luminescence; series mostly up to 57.1 µM
Method: NIH Molecular Libraries Screening Centers Network [MLSCN] NIH Chemical Genomics Center [NCGC] The P450 gene superfamily is involved in the metabolism and clearance of xenobiotics. […] The luciferin is then measured by luminescence after the addition of a luciferase detection reagent. […] Inhibitors and some substrates limit the production of luciferin, and decrease measured luminescence. […]
Inconclusive results are not listed. Activity calls are given as the source filed them. Calls come from the whole dose curve; as a rule, active = well fitted inhibition curve with a large enough effect; inconclusive = small, poorly fitted or top-dose-only effect; inactive = no such curve, though single readings can be large or run the other way.
Return exactly one item of true for active, false for inactive

Please review the entries below; each comes with its answer.
O=C(CCCc1ccc(-c2ccccc2F)cc1)Nc1ccc(O)cc1; true
CC[C@@H]1Cn2c(c3nc(-c4ccccc4)nc-3n(C)c2=O)N1; false
O=C(c1ccco1)N1CCC2(CC1)CN(c1ccccn1)C2; false
c1cncc(-c2cncnc2NCc2cccs2)c1; true
CN(C)c1ccc(-c2ccc3ncnc(NCc4ccccc4)c3c2)cc1; true
N#Cc1cccc(NC(=O)N2CC3(CCN(C(=O)c4cnccn4)CC3)C2)c1; false
COc1ccc(-c2nc3cnc(Nc4cccc(OC)c4)nc3n(CCC#N)c2=O)cc1; true

Here's the next entry for you.
### Prompt Give the logged outcome of this assay for the following compound: CS(=O)(=O)Nc1cccc(-c2nc(NCc3ccccc3)c3ccccc3n2)c1
### Response true

----------
Experiment: NFAT Signaling Pathway (AID 444);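 also: carbachol stimulus at about its EC50 of 1 µM final; % is scaled to controls: 0 for no effect and ±100 for the full control effect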
Details: Jurkat NFAT-bla M1, carbachol, beta-lactamase ratio, 5 h; at 7.69 µM (top of the series) unless noted
Inconclusive results are not listed. Calls of active or inactive are those of the source. Calls follow the shape of the dose curve; as a rule, active = well fitted curve in either direction with a large enough effect (not every such curve was filed as active); inconclusive = small, poorly fitted or top-dose-only effect, or another doubt; inactive = flat fitted curve, though single readings scatter.
Field 'call' accepts active, inactive

Past entries and their recorded results:
Cn1cccc1C(=O)N1CCC2(CC1)CCN(c1cccc(-c3ccccc3)c1)CC2; inactive
O=C(c1cc(C(F)(F)F)cc(C(F)(F)F)c1)N1CCC2(CC1)CN(c1ncccn1)C2; inactive
COc1ccccc1-c1ccc2ncnc(NCCN3CCOCC3)c2c1; inactive
CCNc1ncc2ncc(=O)n(C)c2n1; inactive
CN(Cc1ccco1)c1ncncc1-c1cccnc1; inactive
Cc1noc(C)c1C(=O)N1CCC2(CCCN(C(=O)Nc3cccc(C#N)c3)C2)CC1; inactive
COc1cccc(-c2nc(NCCNC(C)=O)c3ccccc3n2)c1; inactive
COc1ccc(NC(=O)N2CCC3(CC2)CCN(C(=O)c2cccc(F)c2)CC3)cc1; inactive
O=c1cnc2cnc(Nc3ccccc3)nc2n1CCc1ccccc1; inactive
COc1ccccc1CNc1nc(-c2cccnc2)nc2ccccc12; inactive

### Prompt Record request — test call for COc1ccccc1-c1cncnc1NCc1ccccc1
### Response inactive

### Prompt # lookup: test call for FC(F)(F)c1ccccc1-c1cncnc1NCCc1cnc[nH]1
### Response inactive

### Prompt Test call, this compound: Cc1ccccc1-c1ccc2ncnc(N3CCNCC3)c2c1
### Response inactive

----------
Biological target: Cytochrome P450 1A2 (Homo sapiens) (UniProt P05177)
Sequence (P05177 whole entry, looked up): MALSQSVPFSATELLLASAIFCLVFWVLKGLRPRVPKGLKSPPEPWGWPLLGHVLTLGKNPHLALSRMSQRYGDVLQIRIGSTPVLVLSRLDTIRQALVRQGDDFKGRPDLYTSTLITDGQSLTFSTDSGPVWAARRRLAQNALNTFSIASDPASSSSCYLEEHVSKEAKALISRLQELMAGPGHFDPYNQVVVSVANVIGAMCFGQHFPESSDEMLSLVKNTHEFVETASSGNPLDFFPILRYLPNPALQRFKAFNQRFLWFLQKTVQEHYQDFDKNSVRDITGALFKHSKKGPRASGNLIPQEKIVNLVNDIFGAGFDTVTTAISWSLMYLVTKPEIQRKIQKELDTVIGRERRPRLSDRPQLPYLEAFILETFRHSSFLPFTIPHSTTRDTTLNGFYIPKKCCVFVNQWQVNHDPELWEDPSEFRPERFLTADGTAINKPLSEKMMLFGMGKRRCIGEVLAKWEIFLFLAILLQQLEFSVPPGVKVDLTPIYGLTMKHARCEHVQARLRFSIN
Experiment: p450-cyp1a2 (AID 410); also: potency is read from the fitted curve at half-maximal effect
Conditions: recombinant CYP1A2, luciferin-ME demethylation, luminescence; series mostly up to 57 µM
Inconclusive results are not listed. The source made the active and inactive calls. Calls come from the whole dose curve.
Please go through the items and note down their Potency.

Quick request: Potency for each listed item, please.
1. COc1ccc(CNc2nc(-c3c(C)noc3C)nc3ccccc23)c(OC)c1
2. CN1CCN(c2ncc3nc(-c4ccccc4)c(=O)n(CCC#N)c3n2)CC1
3. CN(C)c1ncc2nc(-c3ccccc3)c(=O)n(CCc3ccccc3)c2n1
4. COc1ccc2[nH]cc(CCNc3ccnc(-c4ccc(N(C)C)cc4)n3)c2c1

### Response
["0.794 µM (active)", "20 µM (active)", "20 µM (active)", "0.631 µM (active)"]

----------
Biological target: Cytochrome P450 3A4 (Homo sapiens)
Assay: qHTS Assay for Inhibitors and Substrates of Cytochrome P450 3A4 (AID 884); also: nearly all actives have a fitted effect of over 50% in size
Settings: recombinant CYP3A4, Luciferin-PPXE luminescence; series mostly up to 57.1 µM
Records with an inconclusive call do not appear. Activity calls are given as the source filed them. The call rests on the fitted dose curve; in most records, active means well fitted inhibition curve with a large enough effect; inconclusive means small, poorly fitted or top-dose-only effect; inactive means no such curve, though single readings can be large or run the other way.
Hi there, use one of these labels in your reply, thanks! active, inactive

COc1ccc2[nH]cc(CCNc3ncncc3-c3cccc(NS(C)(=O)=O)c3)c2c1; active
COc1cc2ccc(=O)oc2cc1O; inactive
COCCn1c(=O)c(CCc2ccccc2)nc2cnc(Oc3ccc(OC)cc3)nc21; active
COc1ccccc1-c1cc(-n2ccnc2)ncn1; active
COc1ccccc1-c1cncnc1NCc1ccccc1; active
COc1cccc(-c2nccc(NCc3cccs3)n2)c1; active
CC(C)=CCC/C(C)=C/CC/C(C)=C/CC/C(C)=C/CC/C(C)=C/CC/C(C)=C/CC/C(C)=C/CC/C(C)=C/CC/C(C)=C/CO; inactive
COc1ccc(Oc2ncc3nc(-c4cccs4)c(=O)n(C)c3n2)cc1; active

Here is another compound to look at.
### Prompt Answer briefly: the call reported for O=C(Oc1ccccc1)N1CCC2(CC1)CN(c1ccccn1)C2 in this assay.
### Response inactive
